- Tested on: Staphylococcus aureus
- method-notes: Antibacterial activity against methicillin-resistant Staphylococcus aureus N315 by microbroth dilution method
- Format: functional
Please assign Not fulfilled whenever MIC is at or above 500 µM, and Fulfilled whenever it is below.

Please determine if `C/C(Cn1cc(-c2csc(N)n2)c(=O)c2cc(F)ccc21)=N\NC(N)=S` is below 500 µM in terms of MIC. Fulfilled

Would you kindly repeat that for `CC(=O)Cn1cc(-c2csc(C)n2)c(=O)c2cc(F)c(Cl)cc21` ? Not fulfilled

Try this molecule too: `CC(=O)Cn1cc(-c2csc(C)n2)c(=O)c2cc(F)cc(F)c21` Not fulfilled

Another: `Nc1nc(Cn2cc(-c3csc(N)n3)c(=O)c3cc(F)c(Cl)cc32)cs1` Fulfilled

Can you handle `Cc1nc(-c2c[nH]c3cc(F)c(F)cc3c2=O)cs1` next? Fulfilled

Note, next up: `Nc1nc(-c2c[nH]c3c(F)cccc3c2=O)cs1` Not fulfilled
